Origin of values: the supplement of paper PMC10567573

Catalogue of variants with associated protein stability index
B1: ADAMTS4 (parent)
chain: SFRKFRYGYNNVVTIPAGATHILV

# Variants of: B1
# test_method_notes: protein stability index of a GFP-peptide fusion (GPS, HEK-293T) (PSI 1-6); higher = more stable;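 further: lentivirally expressed fusions sorted by FACS into six bins by GFP to DsRed ratio, PSI derived from sequencing read proportions per bin multiplied by bin number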
# applied_conditions: c terminus: a fixed tail appended
Give a plain numeric answer without units written out.

Recorded results for 8 variants are shown here.
SFRKFRYGYNNVKTIPAGATHILV [V13K] | 1.97
SFRKFRYGYNNVVTIPRGATHILV [A17R] | 2
SFRKFRYGYNNVVTIPAGATVILV [H21V] | 2.02
MFRKFRYGYNNVVTIPAGATHILV [S1M] | 2.99
SFRKFRYGYNNVVTIPVGATHILV [A17V] | 1.24
SFRKGRYGYNNVVTIPAGATHILV [F5G] | 2.3
SFRKFRYGYNNVVTIPAGALHILV [T20L] | 2.9
SFRKFRYGYNMVVTIPAGATHILV [N11M] | 2.27

Q. State its protein stability index: SFRKFRYGYNNVVTIPAGTTHILV [A19T]
A. 1.36

Q. Dear colleague, please send me the reported protein stability index for SFRKFRIGYNNVVTIPAGATHILV [Y7I] when you can.
A. 2.89

Q. Give the value of protein stability index reported for the following: SFRYFRYGYNNVVTIPAGATHILV [K4Y]
A. 3.11

Q. In one line, give reported protein stability index of the entry SFRKFRYGYNNVVTIPAGATHILR [V24R] .
A. 1.34

Q. Output protein stability index of SFREFRYGYNNVVTIPAGATHILV [K4E]
A. 1.51

Q. Give the reported protein stability index for this variant. SFRKFWYGYNNVVTIPAGATHILV [R6W]
A. 2.86
